Tested on: Caco2
experimentalProtocol: Caco2 in vitro permeability assay
testConditions: basolateral to apical
readoutKind: Caco2 PappB > A (sec*cm^2)
Please give a number only; it is taken to be in sec*cm^2.

[Q] Which Caco2 PappB > A reading was recorded for the compound CCCCCCSc1cccc(O)c(=O)c1O ?
[A] 2.11E−04

[Q] Request the reported Caco2 PappB > A associated with CCCCCCSc1ccc(SCCCCCC)c(O)c(=O)c1O
[A] 5.18E−06

[Q] Quick one: Caco2 PappB > A for CCCCSc1ccc(SCCCC)c(O)c(=O)c1O ?
[A] 1.11E−04

[Q] # query: Caco2 PappB > A of entry CC(=O)CC(c1ccccc1)c1c(O)c2ccccc2oc1=O (stereo not shown) [Warfarin, reference compound]
[A] 2.70E−04

---

Tested on: Caco2
experimentalProtocol: Caco2 in vitro permeability assay
testConditions: apical to basolateral
readoutKind: Caco2 PappA > B (sec*cm^2)
All answers are understood in sec*cm^2, so give the number only.

[Q] Caco2 PappA > B for CCCCCCSc1ccc(SCCCCCC)c(O)c(=O)c1O [#841] ?
[A] 3.08E−06

[Q] Reported Caco2 PappA > B, compound CC(=O)CC(c1ccccc1)c1c(O)c2ccccc2oc1=O (stereo not shown) [Warfarin, reference compound] : ____
[A] 9.37E−05

[Q] Returns the measured Caco2 PappA > B for the input compound. Input: CCCCCCSc1cccc(O)c(=O)c1O [#840]
[A] 1.45E−05

[Q] Given CCCCSc1ccc(SCCCC)c(O)c(=O)c1O [#694] , state its recorded Caco2 PappA > B.
[A] 5.83E−06

---

experimentalProtocol: Human liver microsome assay
Type: in vitro ADME
testConditions: human liver microsomes
readoutKind: half-life (min)
Number only, in min; omit the unit.

[Q] Consider the compound shown here: CCCCCCSc1ccc(SCCCCCC)c(O)c(=O)c1O What is its recorded half-life?
[A] 7

[Q] Item CCCCSc1ccc(SCCCC)c(O)c(=O)c1O has what recorded half-life?
[A] 9.8

---

experimentalProtocol: Caco2 in vitro permeability assay
testConditions: human, Caco-2
Provide the recorded efflux ratio for the entries that follow.
Note: the reply should be a number with no unit written.

[Q] // query efflux ratio value for entry CCCCCCSc1ccc(SCCCCCC)c(O)c(=O)c1O [#841]
[A] 1.7

[Q] Fill in the blank: the reported efflux ratio of CCCCCCSc1cccc(O)c(=O)c1O [#840] is ____.
[A] 14.6

[Q] Could you tell me which efflux ratio is on file for CCCCSc1ccc(SCCCC)c(O)c(=O)c1O [#694] ?
[A] 19
